This document collects log10 Ki values reported for UniProt:P20292.
Sequence (P20292 whole entry): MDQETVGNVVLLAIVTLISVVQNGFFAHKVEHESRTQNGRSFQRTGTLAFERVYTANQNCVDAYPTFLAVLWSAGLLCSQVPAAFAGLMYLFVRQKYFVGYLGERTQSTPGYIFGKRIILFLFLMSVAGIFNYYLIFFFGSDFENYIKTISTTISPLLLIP
Use the decimal logarithm of Ki (µM).

These solved cases illustrate the format of a correct answer.
{"record smiles": "N#Cc1ccc(Oc2c(C3CCC3)ccc(-c3cnc(N)cn3)c2F)cc1", "test system": "UniProt:P20292", "numeric readout": -1.64}
{"record smiles": "CC(C)CCc1ccc(-c2cnc(N)cn2)c(F)c1Oc1nccc(N)n1", "test system": "UniProt:P20292", "numeric readout": -0.28}
{"record smiles": "Nc1cnc(-c2ccc(C3CCC3)c(OCc3ccccn3)c2F)cn1", "test system": "UniProt:P20292", "numeric readout": -1.00}
{"record smiles": "CC(C)(C)c1ccc(-c2cnc(N)nc2)c(F)c1Oc1nccc(N)n1", "test system": "UniProt:P20292", "numeric readout": -1.63}
{"record smiles": "Nc1cnc(-c2ccc(C3CC3)c(Oc3nccc(N)n3)c2F)cn1", "test system": "UniProt:P20292", "numeric readout": -1.17}

Fill in log10 Ki for record Nc1cnc(-c2ccc(C3CCC3)c(OCc3cccc(S(F)(F)(F)(F)F)c3)c2F)cn1 -0.52

Query log10 Ki for Nc1cnc(-c2ccc(C3CCC3)c(OCc3cccc(C(F)(F)F)c3Cl)c2F)cn1 0.30

Using the record for Nc1cnc(-c2ccc(CC3CCCCC3)c(Oc3nccc(N)n3)c2F)cn1 , state its measured log10 Ki. -0.45

Retrieve log10 Ki measured for COc1c(C2CCC2)ccc(-c2cnc3c(c2)OCCN3)c1F and print it. -1.85

* * *

test system: leukotriene pathway in human whole blood (LTB4 levels); assay: Human whole blood assay (LTB4); assay type: cell-based; settings: human whole blood diluted 1:1 in RPMI, stimulated with calcium ionophore A23187; single replicate
Where a name gives a salt, the structure may show the parent alone.
value type: IC50 (nM)
// return numeric value only (unit: nM, not printed)

Examples with answers:
{"compound": "CC(C)(C)c1cc(Oc2c(C3CCC3)ccc(-c3cnc(N)cn3)c2F)nc(N)n1", "test system": "leukotriene pathway in human whole blood (LTB4 levels)", "numeric readout": 104}
{"compound": "Nc1cnc(-c2ccc(C3CCC3)c(OCC(O)Cn3c(=O)[nH]c4ccccc43)c2F)cn1 (racemic)", "test system": "leukotriene pathway in human whole blood (LTB4 levels)", "numeric readout": 110}
{"compound": "CC(C)c1cc(Oc2c(C3CCC3)ccc(-c3cnc(N)nc3)c2F)nc(N)n1", "test system": "leukotriene pathway in human whole blood (LTB4 levels)", "numeric readout": 36.1}
{"compound": "NCCNc1nccc(Oc2c(C3CCC3)ccc(-c3cnc(N)cn3)c2F)n1", "test system": "leukotriene pathway in human whole blood (LTB4 levels)", "numeric readout": 3590}
{"compound": "Nc1cnc(-c2ccc(C3CCC3)c(OCc3c(Cl)cccc3Cl)c2F)cn1", "test system": "leukotriene pathway in human whole blood (LTB4 levels)", "numeric readout": 2500}
{"compound": "Nc1ncc(-c2ccc(C3CCC3)c(Oc3cc(O)ncn3)c2F)cn1 [Example 171, trifluoroacetate]", "test system": "leukotriene pathway in human whole blood (LTB4 levels)", "numeric readout": 252}
{"compound": "N#Cc1cccc(COc2c(C3CCC3)ccc(-c3cnc4c(c3)OCCN4)c2F)c1", "test system": "leukotriene pathway in human whole blood (LTB4 levels)", "numeric readout": 355}
{"compound": "N#Cc1ccc(Oc2c(C3CCC3)ccc(-c3cnc(N)cn3)c2F)nc1", "test system": "leukotriene pathway in human whole blood (LTB4 levels)", "numeric readout": 375}

Please give the documented IC50 of COc1cc(Oc2c(C3CCC3)ccc(-c3cnc(N)nc3)c2F)ncn1 1430

Provide only the value of recorded IC50 for Nc1cnc(-c2ccc(C3CCC3)c(Oc3nccnc3N)c2F)cn1 10.1

Look up IC50 of COc1c(C2CCC2)ccc(-c2cnc3c(c2)CCN3)c1F and report it. 2370

Answer with reported IC50 of CC(C)Cc1ccc(-c2cnc(N)cn2)c(F)c1Oc1nccc(N)n1 312

Give a short answer stating reported IC50 for Nc1cnc(-c2ccc(C3CCC3)c(OCc3ccc(Cl)cn3)c2F)cn1 [Example 289, trifluoroacetic acid salt] . 782

* * *

tested on: leukotriene pathway in human whole blood (LTB4 levels); assay: Human whole blood assay (LTB4); type: cell-based; details: human whole blood diluted 1:1 in RPMI, stimulated with calcium ionophore A23187; single replicate
Listed here are molecules together with their documented log10(IC50).
Log scale reminder: IC50 in nM, then log10 taken.

Look over these answered cases.
{"record smiles": "N#Cc1cc(Oc2c(C3CCC3)ccc(-c3cnc(N)cn3)c2F)ccn1", "log10(IC50)": 2.49}
{"record smiles": "CC(C)c1nccc(Oc2c(C3CCC3)ccc(-c3cnc(N)cn3)c2F)n1", "log10(IC50)": 1.09}
{"record smiles": "Nc1cnc(-c2ccc(C3CCC3)c(OCc3ccc(CC(=O)O)cc3)c2F)cn1", "log10(IC50)": 2.56}

Respond only with log10(IC50) recorded for N#Cc1ccc(COc2c(C3CCC3)ccc(-c3cnc(N)cn3)c2F)cc1 3.09

Give a short answer stating reported log10(IC50) for CC(C)(C)OC(=O)COc1c(C2CCC2)ccc(-c2cnc(N)cn2)c1F . 3.06

* * *

system: leukotriene pathway in human whole blood (LTB4 levels); assay: Human whole blood assay (LTB4); format: cell-based; settings: human whole blood diluted 1:1 in RPMI, stimulated with calcium ionophore A23187; single replicate
Structures can show the parent of a compound that is named as a salt.
value type: IC50

Below, 3 compounds whose answers are already recorded.
{"compound": "Nc1cnc(-c2ccc(C3CCC3)c(OCc3nc(C(=O)O)co3)c2F)cn1 [Example 282, trifluoroacetic acid salt]", "IC50": "> 10000 nM"}
{"compound": "CSc1ccnc(Oc2c(C3CCC3)ccc(-c3cnc(N)cn3)c2F)n1 [Example 88]", "IC50": "36.1 nM"}
{"compound": "Nc1cnc(-c2ccc(C3CCC3)c(OCc3ccc(S(F)(F)(F)(F)F)cc3)c2F)cn1 [Example 79]", "IC50": "2230 nM"}

Note: attention shifts to another entry.
Using leukotriene pathway in human whole blood (LTB4 levels) as the test system, report measured IC50 of CCCc1ccc(-c2cnc(N)cn2)c(F)c1Oc1ncccn1 [Example 319] . 284 nM

* * *

test system: leukotriene pathway in human whole blood (LTB4 levels); experiment: Human whole blood assay (LTB4); format: cell-based; conditions: human whole blood diluted 1:1 in RPMI, stimulated with calcium ionophore A23187; single replicate
value type: IC50

Known IC50 results, listed for orientation:
{"compound": "CC(C)(C)c1ccc(-c2cnc(N)cn2)c(F)c1Oc1ncccn1 [Example 201]", "IC50": "0.0518 µM"}
{"compound": "Nc1cc(Oc2c(C3CCC3)ccc(-c3cnc(N)nc3)c2F)ncn1 [Example 164]", "IC50": "0.119 µM"}

Recall the reported IC50 of Cc1ccnc(Oc2c(C3CCC3)ccc(-c3cnc(N)cn3)c2F)n1 [Example 69] on leukotriene pathway in human whole blood (LTB4 levels) and write it down. 0.0739 µM

Enter IC50 (test system leukotriene pathway in human whole blood (LTB4 levels)) for Nc1cnc(-c2ccc(C3CCC3)c(OCc3cccc(-c4nnn[nH]4)c3)c2F)cn1 [Example 21] 4.13 µM

Would you please give the reported IC50 of Nc1cnc(-c2ccc(C3CCC3)c(OCc3ccc(C(F)(F)F)cc3)c2F)cn1 [Example 1] with leukotriene pathway in human whole blood (LTB4 levels)? 0.588 µM

For leukotriene pathway in human whole blood (LTB4 levels), give the measured IC50 of the entry Nc1cnc(-c2ccc(C3CCC3)c(OCC(O)Cn3nccn3)c2F)cn1 (racemic) [Example 64] 0.275 µM

Retrieve IC50 on leukotriene pathway in human whole blood (LTB4 levels); query CS(=O)(=O)c1ccc(Oc2c(C3CCC3)ccc(-c3cnc(N)cn3)c2F)nc1 [Example 239] 0.197 µM

Find IC50 for Cc1ccnc(Oc2c(C3CCC3)ccc(-c3cnc(N)nc3)c2F)n1 [Example 163] on leukotriene pathway in human whole blood (LTB4 levels) and write it down. 0.494 µM

Print leukotriene pathway in human whole blood (LTB4 levels) IC50 for COc1cc(Oc2c(C3CCC3)ccc(-c3cnc4[nH]ccc4c3)c2F)ncn1 [Example 228] . 0.48 µM

Give the observed IC50 of O=C(O)c1ccc(COc2c(C3CCC3)ccc(-c3cnc4c(c3)OCCN4)c2F)cc1 [Example 196] for leukotriene pathway in human whole blood (LTB4 levels). 0.871 µM

Give leukotriene pathway in human whole blood (LTB4 levels) IC50 for the following compound: Nc1cnc(-c2ccc(C3CCC3)c(OCC(O)Cn3cccn3)c2F)cn1 (racemic) [Example 60] 0.732 µM

* * *

test system: leukotriene pathway in human whole blood (LTB4 levels); experiment: Human whole blood assay (LTB4); assay type: cell-based; conditions: human whole blood diluted 1:1 in RPMI, stimulated with calcium ionophore A23187; single replicate
value type: pIC50
Bear in mind: pIC50 is minus log10 of a mol/L concentration; give just that figure.

Consider the following illustrative entries.
{"compound": "CC(C)(C)c1ccc(-c2cnc(N)nc2)c(F)c1Oc1ncccn1", "numeric readout": 7.14}
{"compound": "Nc1cnc(-c2ccc(C3CCC3)c(OCC(O)Cn3nncc3N)c2F)cn1 (racemic)", "numeric readout": 6.12}
{"compound": "Nc1cnc(-c2ccc(C3CCC3)c(OCc3cccc(Cl)c3)c2F)cn1", "numeric readout": 5.94}
{"compound": "Nc1cnc(-c2ccc(C3CCC3)c(OCc3ccc(Cl)cc3)c2F)cn1", "numeric readout": 5.59}
{"compound": "Nc1cnc(-c2ccc(C3CCC3)c(OCC(O)CNc3cc(N)ncn3)c2F)cn1 (racemic)", "numeric readout": 5.81}

Tell me pIC50 reported for Nc1cnc(-c2ccc(C3CCC3)c(OCc3cccnc3)c2F)cn1 5.89

Look up pIC50 of Nc1cnc(-c2ccc(C3CCC3)c(Oc3cccc(C(F)(F)F)n3)c2F)cn1 and report it. 6.99

Provide one value: measured pIC50 of Nc1cnc(-c2ccc(C3CCC3)c(Oc3cc(C4CC4)ncn3)c2F)cn1 7.23

Let me know recorded pIC50 for COc1nc(N)cc(Oc2c(C3CCC3)ccc(-c3cnc(N)cn3)c2F)n1 , thanks. 7.90

Identify measured pIC50 corresponding to NC(=O)c1ccnc(Oc2c(C3CCC3)ccc(-c3cnc(N)cn3)c2F)n1 6.96
